- Tested on: 786-0
- test-summary: NCI tumour cell line growth inhibition, 48 h
The source made the active and inactive calls. No stated cut-off is given here; in the data, active = GI50 up to about 1.1 µM and inactive = higher. Non-standard residues stand in square brackets, D forms with d. Residues, ends and D or L forms follow the SMILES beside them. *: point of attachment. Phe(4-NO2) = N[CH](Cc1ccc([N+](=O)[O-])cc1)C(=O)O; Boc = CC(C)(C)OC(=O)*
Respond with a class label; see active, inactive

How did this test come out for "Cc1ccc(/C=C2\N=C(N3CCCCC3)NC2=O)cc1" ? inactive

Hi, sorry to bother you, what did the test record for "O=c1[nH]nc(-c2ccccc2)n1/N=C\CC/C=N\n1c(-c2ccccc2)n[nH]c1=O" ? inactive

State the result this test recorded for "CCOC(=O)c1cc(Br)c(-c2cc(C)co2)[nH]1" . inactive

Hi team, can someone confirm the assay call for Cc1nn(C(=O)Cc2ccccc2)c2c1C(c1ccccc1)SC(=N)N2 (stereo not given) ? inactive

Entry "Clc1ccc(-c2cn3c(nc4ccccc43)c(/C=C/c3cccs3)n2)cc1" : call = ? inactive

Outcome logged for "C1=CC=C2NCCCCCC/N=C3\C=CC=CC=C3NCCc3cccc(c3)CC/N=C/2C=C1" in this assay: inactive

Returns: the outcome recorded for COc1ccccc1C(C1=C(O)COC1=O)c1cc2c(cc1OC(C)=O)OCO2 (stereo not given) in this assay. inactive

Could you kindly confirm the outcome this assay logged for "COc1ccc(/C=C2/CCS(=O)(=O)c3ccc(C)cc3C2=O)cc1OC" ? inactive

In this assay, the call recorded for CC(Br)CN1CCOCC1 (stereo not given) was what? inactive

What is the recorded call for this compound in the test? Cc1cccc(-n2c(C)nc3ccc(NC4OC(CO)C(O)C(O)C4O)cc3c2=O)c1 (stereo not given) inactive

Tell me the recorded outcome of this test for "Cc1ccccc1/N=N/c1c(-c2ccccc2)nn(C(=O)CC(=O)Nc2cccc(Cl)c2)c1-c1ccccc1" . inactive

Could you check what this test reported for COc1cc(/C=C2\NC(=S)C3Cc4c(OC)c(C)c(OC)c(OC)c4C2N3C)c(OC)c(C)c1OC (stereo not given) ? inactive

Hi, do you know how "CCN1/C(=C/c2ccc3ccccc3[n+]2CC)C=Cc2ccccc21" came out in this test? inactive

Can you look up the reported call for "COc1ccc(Nc2ccc3ccccc3c2-c2c(O)ccc3ccccc23)cc1" for me? inactive

For "Nc1ccc(I)cn1" , what call appears in the results of this test? inactive

Look up the recorded call for CC1(C)OC2COC3(CNO)OC(C)(C)OC3C2O1 (stereo not given) in this test. inactive

For "O=C1NC(=S)N/C1=C\c1ccc(Br)s1" , which call appears in the assay record? inactive

// param item: "CCCNC(=O)Cn1c2c(c3ccccc31)CCCC2" ; yields the recorded call inactive

Entry "CCOc1cc(/C=C/C=C/C=C/c2ccc(N(C)C)cc2)[s+]c2ccccc12" : call = ? inactive

What call does the record list for "O=[N+]([O-])c1ccc(-c2cc(O)c3nc4ccccc4n3c2)cc1" ? inactive

For this compound, state the assay outcome: COc1ccc(C2c3cc4c(cc3C(O)C3CCC(=O)N23)OCO4)cc1 (stereo not given) inactive

Can you look up the reported call for COC(=O)CCC(NC(=O)OC(C)(C)C)C(=O)NC(Cc1ccc([N+](=O)[O-])cc1)C(=O)NC(CCC(=O)OC)C(=O)OC (stereo not given) (Boc-Glu(OMe)-[Phe(4-NO2)]-Glu(OMe)-OMe; configuration not given here) for me? inactive

Fill in: this test's call for "COc1cc2c(cc1OC)C1(c3ccccc3)CN(C2)Cc2cc(OC)c(OC)cc21" is ___ inactive

Call for entry "Cc1ccc(NCC(=O)N2CC(=O)Nc3ccccc32)c(C)c1" : inactive

# outcome recorded in this test, key = "CCOC(=O)c1ccc(/N=N/c2cc(C(=O)OCC)ccc2O)cc1" inactive

// return assay outcome for "CCCCCCCCC(=O)CCCCCCCCC(=O)O" inactive

Query: recorded result category for "COC(=O)c1cc(C)n2c1CS[C@@H]2c1ccccc1" in this test inactive

I would be grateful if you could indicate the recorded call for "Nc1ccccc1C(=O)/C=C/c1ccccc1O" . inactive

Which result was noted for this compound in the test: "CCOc1cc(NC(C)=O)ccc1C(=O)N/N=C/c1ccco1" inactive

Outcome logged for "C/C(C=O)=C/[C@@]1(C)O[C@@H](C)[C@@](C)(O)[C@@H]1O" in this assay: inactive

How was "Cc1c2cccc-2c(N(C)C)cc2c1[nH]c1ccccc12" classified in this test? inactive

I would be grateful if you could indicate the recorded call for "CCN(CC)CCOc1ccc(/C=C(\C#N)c2ccc(OCCN(CC)CC)cc2)cc1" . inactive

Dear all, I need the recorded test outcome for "S=C(NCc1ccccc1)c1nc[nH]c1C(=S)NCc1ccccc1" , thank you. inactive

Called result for COC(=O)C(Cc1c[nH]c2ccccc12)NC(=O)C(Cc1c[nH]c2ccccc12)NC(=O)C(Cc1c[nH]c2ccccc12)NC(=O)C(Cc1c[nH]c2ccccc12)NC(=O)C(Cc1c[nH]c2ccccc12)NC(=O)C(Cc1c[nH]c2ccccc12)NC(=O)OC(C)(C)C (stereo not given) (Boc-WWWWWW-OMe; configuration not given here) inactive

Per the assay record, what outcome was assigned to "CS(=O)(=O)c1cc(=O)c2ccccc2s1" ? inactive

Which outcome did this test record for the compound "Nc1ccccc1C(=O)NC(=O)Nc1ccc(Oc2ncc(Br)cn2)c(Cl)c1" ? active

Please let me know the test result on file for CCOC(=O)CCC(C(=O)OCC)n1nc2ccc(Nc3c(C)[n+]([O-])c4cc(F)c(OCC)cc4[n+]3[O-])cc2n1 (stereo not given) . inactive

Please let me know the test result on file for "Cc1cc2nc(N3C(=O)/C(=C/Cc4ccco4)N=C3c3ccccc3)sc2cc1C" . inactive

Would you mind telling me which call this test gave "COc1cc(CNC(=O)[C@H](Cc2ccc(O)cn2)NC(C)=O)cc(OC)c1" ? inactive

How was "COC(=O)c1ccc2c(c1)S/C(=C/c1ccc3ccc4cccc5ccc1c3c45)S2" classified in this test? inactive
